# target or test system: folate receptor beta (Homo sapiens (Human), UniProt P14207)
# Sequence (P14207 17-255): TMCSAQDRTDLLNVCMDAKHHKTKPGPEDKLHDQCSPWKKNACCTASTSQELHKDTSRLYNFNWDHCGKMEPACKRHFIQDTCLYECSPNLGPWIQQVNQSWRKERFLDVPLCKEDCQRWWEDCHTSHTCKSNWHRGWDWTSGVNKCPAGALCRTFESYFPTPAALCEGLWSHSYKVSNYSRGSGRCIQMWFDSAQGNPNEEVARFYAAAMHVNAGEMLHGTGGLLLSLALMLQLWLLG
# experimental details: Folate receptor SPR assay (biotinylated folate receptor beta on streptavidin chip)
# Format: binding
# condition set: biotinylated folate receptor beta on streptavidin chip
readout type: Rmax (RU)

1) Cc1nc2cc(F)c(-c3cnc(N4CCN(C(=O)COCCOCCOCCOCCOCCOCCn5cc(CC[C@H](NC(=O)c6ccc(OCc7ccc8nc(N)nc(O)c8c7)cc6)C(=O)O)nn5)CC4)nc3)nc2c(N[C@H](C)c2cc(C#N)ccc2F)c1Cl [Compound I-87] :: 18.7
2) Cc1nc2cc(F)c(-c3cnc(N4CCN(C(=O)COCCOCCOCCOCCOCCOCCn5cc(CC[C@H](NC(=O)c6ccc(CCc7ccc8nc(N)nc(O)c8c7)cc6)C(=O)O)nn5)CC4)nc3)nc2c(N[C@H](C)c2cc(C#N)ccc2F)c1Cl [Compound I-82] :: 14.5
3) Cc1nc2cc(F)c(-c3cnc(N4CCN(C(=O)COCCOCCOCCOCCOCCOCCn5cc(CC[C@H](NC(=O)c6ccc(N(C)Cc7ccc8nc(N)[nH]c(=O)c8c7)cc6)C(=O)O)nn5)CC4)nc3)nc2c(N[C@H](C)c2cc(C#N)ccc2F)c1Cl [Compound I-85] :: 11.9
4) Cc1nc2cc(F)c(-c3cnc(N4CCN(C(=O)COCCOCCOCCOCCOCCOCCn5cc(CC[C@H](NC(=O)c6ccc(NCc7cnc8nc(N)nc(O)c8n7)cc6)C(=O)O)nn5)CC4)nc3)nc2c(N[C@H](C)c2cc(C#N)ccc2F)c1Cl [Compound I-92] :: 17.1
5) Cc1nc2cc(F)c(-c3cnc(N4CCN(C(=O)COCCn5cc(COCCOCCOCCN6CCN(C(=O)CC[C@H](NC(=O)c7ccc(NCc8cnc9nc(N)nc(O)c9n8)cc7)C(=O)O)CC6)nn5)CC4)nc3)nc2c(N[C@H](C)c2cc(C#N)ccc2F)c1Cl [Compound I-95] :: 14.8
6) Cc1nc2cc(F)c(-c3cnc(N4CCN(C(=O)COCCn5cc(COCCOCCOCCOCCNC(=O)CCCNC(=O)c6ccc(NCc7cnc8nc(N)nc(O)c8n7)cc6)nn5)CC4)nc3)nc2c(N[C@H](C)c2cc(C#N)ccc2F)c1Cl [Compound I-96] :: 17.1
7) Cc1nc2cc(F)c(-c3cnc(N4CCN(C(=O)COCCn5cc(COCCOCCOCCOCCNC(=O)CC[C@H](NC(=O)c6ccc(SCCc7cc8c(=O)[nH]c(N)nc8[nH]7)cc6)C(=O)O)nn5)CC4)nc3)nc2c(N[C@H](C)c2cc(C#N)ccc2F)c1Cl [Compound I-98] :: 14.8
8) Cc1nc2cc(F)c(-c3cnc(N4CCN(C(=O)COCCn5cc(CN(CCO)CCOCCOCCOCCNC(=O)CC[C@H](NC(=O)c6ccc(NCc7cnc8nc(N)nc(O)c8n7)cc6)C(=O)O)nn5)CC4)nc3)nc2c(N[C@H](C)c2cc(C#N)ccc2F)c1Cl [Compound I-93] :: 17.7
9) Cc1nc2cc(F)c(-c3cnc(N4CCN(C(=O)COCCn5cc(CN(C)CCOCCOCCOCCNC(=O)CC[C@H](NC(=O)c6ccc(NCc7cnc8nc(N)nc(O)c8n7)cc6)C(=O)O)nn5)CC4)nc3)nc2c(N[C@H](C)c2cc(C#N)ccc2F)c1Cl [Compound I-94] :: 15.4
10) Cc1nc2cc(F)c(-c3cnc(N4CCN(C(=O)COCCOCCOCCOCCOCCn5cc(CC[C@H](NC(=O)c6ccc(NCc7cnc8nc(N)nc(O)c8n7)cc6)C(=O)O)nn5)CC4)nc3)nc2c(N[C@H](C)c2cc(C#N)ccc2F)c1Cl [Compound I-89] :: 31.1
